- MEASURED TARGET: human BChE (Homo sapiens)
- Construct: gift of Dr. F. Nachon (Département de Toxicologie, Armed Forces Biomedical Research Institute, France)
- Sequence (P06276 29-602): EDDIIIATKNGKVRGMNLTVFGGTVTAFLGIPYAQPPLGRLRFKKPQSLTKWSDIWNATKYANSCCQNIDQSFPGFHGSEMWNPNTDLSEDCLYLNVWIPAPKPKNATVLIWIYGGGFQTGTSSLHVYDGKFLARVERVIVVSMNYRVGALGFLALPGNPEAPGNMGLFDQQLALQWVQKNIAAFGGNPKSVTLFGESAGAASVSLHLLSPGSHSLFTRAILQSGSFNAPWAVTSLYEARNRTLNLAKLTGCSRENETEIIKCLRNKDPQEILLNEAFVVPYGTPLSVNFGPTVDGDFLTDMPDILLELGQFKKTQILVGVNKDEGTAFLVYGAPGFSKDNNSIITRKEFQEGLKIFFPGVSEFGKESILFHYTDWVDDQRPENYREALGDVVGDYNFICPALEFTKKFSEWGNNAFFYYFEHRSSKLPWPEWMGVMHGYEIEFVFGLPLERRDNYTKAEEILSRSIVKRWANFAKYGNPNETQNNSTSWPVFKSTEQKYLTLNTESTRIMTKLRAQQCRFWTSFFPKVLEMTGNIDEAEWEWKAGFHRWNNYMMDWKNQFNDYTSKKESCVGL
- EXPERIMENT SUMMARY: Reversible inhibition of human BChE, Ellman method with ATCh, Hunter-Downs analysis
- Assay type: biochemical
- CONDITIONS: enzyme-substrate (ATCh) dissociation constant derived from the inhibition kinetics with the compound

>  <COMPOUND>
C=CC1C[N+]2(Cc3ccc(Br)cc3)CCC1CC2C(O)c1ccnc2ccccc12 (stereo not drawn) [CD-(pBr)]

>  <BChE Ks / mM>
0.34

$$$$
>  <COMPOUND>
C=CC1C[N+]2(Cc3cccc(Br)c3)CCC1CC2C(O)c1ccnc2ccccc12 (stereo not drawn) [CN-(mBr)]

>  <BChE Ks / mM>
0.48

$$$$
>  <COMPOUND>
C=CC1C[N+]2(Cc3ccccc3)CCC1CC2C(O)c1ccnc2ccccc12 (stereo not drawn) [CN-Bzl]

>  <BChE Ks / mM>
0.29

$$$$
>  <COMPOUND>
C=CC1C[N+]2(C)CCC1CC2C(O)c1ccnc2ccccc12 (stereo not drawn) [CN-Met]

>  <BChE Ks / mM>
0.35

$$$$
>  <COMPOUND>
C=CC1C[N+]2(Cc3ccc(Cl)cc3)CCC1CC2C(O)c1ccnc2ccccc12 (stereo not drawn) [CN-(pCl)]

>  <BChE Ks / mM>
0.49

$$$$
>  <COMPOUND>
C=CC1C[N+]2(Cc3cccc(C)c3)CCC1CC2C(O)c1ccnc2ccccc12 (stereo not drawn) [CN-(mCH3), N-(3-methylbenzyl) cinchoninium bromide]

>  <BChE Ks / mM>
0.53

$$$$
